Just for reference, patent US11180487B2 is where these values come from.

ENDPOINT: melting point (°C)
Please give a number only; it is taken to be in °C.

- Cc1ccc(C#N)cc1Nc1nccc(-c2cc(C#N)c3c(c2)[C@@](C)(COC(=O)[C@H](N)Cc2ccccc2)CN3)n1: 180
- Cc1ccc(C#N)cc1Nc1nccc(-c2cc(C#N)c3c(c2)[C@@](C)(COC(=O)[C@@H](C)N)CN3)n1: 212
- COc1cc(P(C)(C)=O)ccc1Nc1nccc(-c2cc(C#N)c3c(c2)[C@@](C)(CO)CN3)n1: 160

Data request, read-out melting point, for `COCCOc1ccc(Cl)cc1Nc1nccc(-c2cc(C#N)c3c(c2)C(C)(C)CN3)n1`
171
